system: LNCaP; assay: Cell growth inhibition assay, prostate cancer cell line LNCaP (medium with 10 ng/mL IL-6); type: cell-based; settings: Homo sapiens, medium supplemented with 10 ng/mL of IL-6, 10,000 cells/well
measured-quantity: log10 IC50 (log10 of the value in µM)
Kindly note that the scale is log10 and the underlying IC50 is in µM.

Record CC(C)(C)OC(=O)N1CCN(Cc2cccc(C(C)(C)c3cc(Br)cc(NC(=O)c4cc5ccc(NS(C)(=O)=O)cc5[nH]4)c3)c2)CC1 . Reported log10 IC50: 0.41

Moving on to the next compound.
Record CN(C)c1cc(NC(=O)c2cc3cc(NS(C)(=O)=O)ccc3o2)cc(-c2ccc(F)cc2F)c1 . Reported log10 IC50: 0.89

###

tested on: MDA-MB-361; test: Cell growth inhibition assay, cell line MDA-MB-361; format: cell-based; details: Homo sapiens, MDA-MB-361 cells
measured-quantity: IC50 (µM)
Answer format: numeric, µM implied, no suffix.

Record CN(c1ccc2cc(C(=O)Nc3cccc(-c4ccccc4C(F)(F)F)c3)[nH]c2c1)S(C)(=O)=O [Example 346] . Reported IC50: 0.28

###

molecular target: STAT3 (Homo sapiens); construct: plasmid pSTAT3-TA-luc), which contains a stably operating STAT3 promoter; endogenous in cells; assay: STAT3 reporter gene assay (luciferase), LNCaP stable cell line (pSTAT3-TA-luc), IL-6 stimulation; type: cell-based
Sequence (P40763 whole entry): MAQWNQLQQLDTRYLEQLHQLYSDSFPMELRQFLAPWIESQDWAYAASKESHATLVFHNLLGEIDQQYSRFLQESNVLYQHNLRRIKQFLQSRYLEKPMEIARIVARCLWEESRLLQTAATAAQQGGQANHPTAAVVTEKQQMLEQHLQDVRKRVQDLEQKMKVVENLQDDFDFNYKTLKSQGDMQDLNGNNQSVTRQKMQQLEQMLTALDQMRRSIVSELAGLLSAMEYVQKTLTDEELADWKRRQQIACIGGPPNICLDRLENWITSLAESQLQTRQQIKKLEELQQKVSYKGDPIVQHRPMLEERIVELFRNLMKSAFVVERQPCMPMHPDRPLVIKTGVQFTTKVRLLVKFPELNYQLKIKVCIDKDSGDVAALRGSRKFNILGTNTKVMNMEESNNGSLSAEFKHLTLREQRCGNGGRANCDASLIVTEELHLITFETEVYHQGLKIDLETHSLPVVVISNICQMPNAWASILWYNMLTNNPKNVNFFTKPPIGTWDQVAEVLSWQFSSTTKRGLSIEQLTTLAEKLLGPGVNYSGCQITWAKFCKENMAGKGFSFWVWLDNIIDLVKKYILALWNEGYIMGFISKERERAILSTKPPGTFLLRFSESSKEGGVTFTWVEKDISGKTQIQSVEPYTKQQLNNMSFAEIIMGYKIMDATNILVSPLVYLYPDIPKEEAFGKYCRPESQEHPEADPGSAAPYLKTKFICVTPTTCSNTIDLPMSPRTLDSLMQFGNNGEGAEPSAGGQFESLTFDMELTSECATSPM
Listing of recorded IC50 by entry.
Answer format: numeric, µM implied, no suffix.

Below, 10 compounds whose answers are already recorded.
IC50 value, target or system STAT3 (Homo sapiens), for CC(C)(c1cccc(NC(=O)c2cc3cc(NS(C)(=O)=O)ccc3s2)c1)c1cccc(OC(F)(F)F)c1 : 0.046

IC50 value, target or system STAT3 (Homo sapiens), for CC(C)(c1ccc(F)cc1)c1cc(Br)cc(NC(=O)c2cc3ccc(NS(C)(=O)=O)cc3[nH]2)c1 : 0.13

IC50 value, target or system STAT3 (Homo sapiens), for C#Cc1cc(NC(=O)c2cc3ccc(NS(C)(=O)=O)cc3[nH]2)cc(C(C)(C)c2ccc(F)cc2)c1 : 0.42

IC50 value, target or system STAT3 (Homo sapiens), for CC(C)(c1ccncc1)c1cc(Cl)cc(NC(=O)c2cc3cc(NS(C)(=O)=O)ccc3s2)c1 : 0.54

IC50 value, target or system STAT3 (Homo sapiens), for CS(=O)(=O)Nc1cc2cc(C(=O)Nc3cc(Cl)nc(Oc4ccc(C(F)(F)F)cc4)c3)sc2cc1Cl : 0.009

IC50 value, target or system STAT3 (Homo sapiens), for CC(C)Oc1cc(OC(F)(F)F)cc(C(C)(C)c2cc(Cl)cc(NC(=O)c3cc4nc(NS(C)(=O)=O)cnc4s3)c2)c1 : 2.2

IC50 value, target or system STAT3 (Homo sapiens), for CC(C)Oc1cc(CN2CCN(S(=O)(=O)N(C)C)CC2)cc(C(C)(C)c2cc(Cl)cc(NC(=O)c3cc4cc(NS(C)(=O)=O)ccc4s3)c2)c1 : 0.085

IC50 value, target or system STAT3 (Homo sapiens), for CS(=O)(=O)Nc1ccc2cc(C(=O)Nc3cc(CC#N)cc(-c4ccc(F)cc4F)c3)[nH]c2c1 : 1.3

IC50 value, target or system STAT3 (Homo sapiens), for Cc1c(C(=O)Nc2cccc(-c3ccc(F)cc3F)c2)sc2cc(NS(C)(=O)=O)ccc12 : 1.8

IC50 value, target or system STAT3 (Homo sapiens), for COc1cc(OC(F)(F)F)cc(C(C)(C)c2cc(Br)cc(NC(=O)c3cc4cc(NS(C)(=O)=O)cnc4s3)c2)c1 : 0.072

Next:
IC50 value, target or system STAT3 (Homo sapiens), for C=C(c1ccccc1)c1cccc(NC(=O)c2cc3cc(NS(C)(=O)=O)ccc3s2)c1 : 0.26

IC50 value, target or system STAT3 (Homo sapiens), for CC(C)Oc1cc(OC(F)(F)F)cc(C(C)(C)c2cc(I)cc(NC(=O)c3cc4cc(NS(C)(=O)=O)ccc4s3)c2)c1 : 0.018
